// provenance: PubChem BioAssay (NCI)

test system: NCI-H522 lung; assay: NCI tumour cell line growth inhibition, 48 h
Please provide measured TGI for the entries that follow.

compound: O=c1c(Cc2ccc(Cl)cc2)nnc2sc(-c3ccc(-c4ccc(F)c(Cl)c4)o3)nn12
value: > 100 µM

compound: Nc1ccc(C(=O)CC(N)C(=O)O)cc1O (centres undefined)
value: > 100 µM

compound: O=S(=O)(c1cc(Cl)ccc1Cl)n1ccnc1
value: > 100 µM

Incoming: Form field - read-out: TGI; system: NCI-H522 lung; submitted item: COC1C2C=CC(C2)[C@H]1[N+](=O)[O-] (some centres undefined)
Outgoing: > 100 µM

----------
test system: SNB-75 CNS; experiment: NCI tumour cell line growth inhibition, 48 h
assayReadout: GI50

compound: Cc1cc(S(=O)(=O)NC#N)c(S/C(=N\Nc2ccc([N+](=O)[O-])cc2)c2ccc(Cl)cc2)cc1Cl
assaySystem: SNB-75 CNS
value: 38100 nM

compound: CCOc1cc(/C=N\Nc2nnc(C)n2N)c(C)cc1N(CCCl)CCCl
assaySystem: SNB-75 CNS
value: 692 nM

compound: CC[C@H](Nc1nc(C)nc(N)c1C#N)c1nc2cccc(NCc3ccc(C(=O)NO)cc3)c2c(=O)n1-c1ccccc1
assaySystem: SNB-75 CNS
value: 1730 nM

Incoming: Which GI50 reading was recorded for the compound COc1ccc(C2=NN(C=O)C(c3cccc(Nc4ccnc5cc(Cl)ccc45)c3)C2)cc1 (centres undefined) ?
Outgoing: 2560 nM

----------
tested on: NCI-H522 lung; assay: NCI tumour cell line growth inhibition, 48 h; in the data active = GI50 below about 0.43 µM; inactive = the rest
# output must be one of active, inactive

compound: Cc1cc2c(cc1Cl)SC1=NN(C)C(N(C)C)N1S2(=O)=O (stereo not given)
assaySystem: NCI-H522 lung
assignedCategory: inactive
--
compound: Cc1nc2sccn2c1-c1csc(Nc2cccc(Cl)c2C)n1
assaySystem: NCI-H522 lung
assignedCategory: inactive
--
compound: Cc1c(C(=O)NCCN2CCOCC2)cn2ncnc(Oc3ccc(NC(=O)Nc4ccc(Cl)c(C(F)(F)F)c4)cc3)c12
assaySystem: NCI-H522 lung
assignedCategory: inactive
--
compound: Cc1cc(Cl)ccc1Nc1nc(C(F)(F)F)ccc1C(=O)N/N=C/c1ccc([N+](=O)[O-])cc1
assaySystem: NCI-H522 lung
assignedCategory: inactive

Incoming: GET /call?item= Cc1sc2nc3c4ccccc4c(NCCCN(C)C)nn3c(=O)c2c1C returns the recorded outcome of this test.
Outgoing: inactive

Incoming: For CN(C)CCCNC(=O)c1ccc2c(c1)oc1cc3ccccc3c(=O)n12 , what call appears in the results of this test?
Outgoing: inactive

----------
tested on: RPMI-8226 leukemia; experiment: NCI tumour cell line growth inhibition, 48 h; in the data active = GI50 below about 0.43 µM; inactive = the rest
Tick one outcome: TRUE (active), FALSE (inactive)

Example entries begin here.
compound: CCC[n+]1cc2cc(OC)c(OC)cc2c2c1-c1cc3c(cc1C2)OCO3
assaySystem: RPMI-8226 leukemia
assignedCategory: FALSE
//
compound: CCn1c(-c2nonc2N)nc2c(C#CC(C)(C)O)nc(OCCNC)cc21
assaySystem: RPMI-8226 leukemia
assignedCategory: FALSE
//
compound: COc1ccc(-c2ccc(-c3ccc(C(=N)N)cn3)o2)cc1
assaySystem: RPMI-8226 leukemia
assignedCategory: FALSE
//
compound: Cc1c(C(=O)NCCN2CCOCC2)cn2ncnc(Oc3ccc(NC(=O)Nc4ccc(Cl)c(C(F)(F)F)c4)cc3)c12
assaySystem: RPMI-8226 leukemia
assignedCategory: FALSE
//
compound: CCOc1cc(/C=N\Nc2nnc(C)n2N)c(C)cc1N(CCCl)CCCl
assaySystem: RPMI-8226 leukemia
assignedCategory: TRUE
//
compound: C/C=C1\NC(=O)[C@H]2CSSCCC=C[C@H](CC(=O)N[C@H](C(C)C)C(=O)N2)OC(=O)[C@H](C(C)C)NC1=O
assaySystem: RPMI-8226 leukemia
assignedCategory: TRUE

Incoming: Any idea what this test logged for COc1ccc(C2=NN(C=O)C(c3cccc(Nc4ccnc5cc(Cl)ccc45)c3)C2)cc1 (configuration not stated) ?
Outgoing: FALSE
